// data source = paper PMC11952367

# System name: UniProt:Q9Y257
# Sequence (Q9Y257 whole entry): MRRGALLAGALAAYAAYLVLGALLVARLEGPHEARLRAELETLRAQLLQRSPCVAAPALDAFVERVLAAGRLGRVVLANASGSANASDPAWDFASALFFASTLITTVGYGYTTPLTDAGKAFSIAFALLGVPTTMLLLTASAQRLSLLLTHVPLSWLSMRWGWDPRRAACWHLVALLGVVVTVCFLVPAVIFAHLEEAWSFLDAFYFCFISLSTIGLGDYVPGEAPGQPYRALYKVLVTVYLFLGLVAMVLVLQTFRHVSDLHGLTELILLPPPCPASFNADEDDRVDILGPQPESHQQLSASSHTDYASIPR
# Protocol details: automated whole-cell patch clamp, HEK293 GnTI- cells
# Condition: inhibition; voltage step to +60 mV from holding -90 mV
Measured parameter: IC50 (µM)
Your answer is read as µM, so omit the unit and give the number.

Problem: I'd like to know its IC50. The compound in question is COc1ccccc1C(=O)Nc1cccc(NC(=O)c2cccc(C)c2)c1
Solution: 1.5
